Experiment: Induction of nitric oxide release assessed as nitrate/nitrite level at 100 uM after 40 mins by Griess assay
Assay type: functional
result type: Activity (µM)
Entry rule: numbers only, all in µM.

Incoming: Any idea what its Activity is? The molecule is COC(=O)CCC(=O)OCCOc1no[n+]([O-])c1S(=O)(=O)c1ccccc1
Outgoing: 24.1

Incoming: What about this molecule? C=C1C(=O)[C@@]23C(=O)OC[C@]4(C(=O)CCC(C)(C)[C@H]4C=O)C2CC[C@@H]1[C@H]3OC(=O)CCC(=O)OCCCCOc1no[n+]([O-])c1S(=O)(=O)c1ccccc1 (stereo partly drawn)
Outgoing: 6.92

Incoming: What about this molecule? C=C1C(=O)[C@@]23C(=O)OC[C@@]4(C2CC[C@@H]1[C@H]3OC(=O)c1ccccc1C(=O)OCCCCOc1no[n+]([O-])c1S(=O)(=O)c1ccccc1)[C@@H](OC(C)=O)CCC(C)(C)[C@H]4C=O (stereo partly drawn)
Outgoing: 16.3
